- Test system: HepG2
- protocolSummary: Cytotoxicity against Homo sapiens (human) HepG2 cells after 48 hr by MTT assay
- Type: functional, cell-based
- settings: Homo sapiens, HepG2, 48 h; read-out: IC50
readoutLabel: IC50 (µg/mL)
API: value field is a number in µg/mL; no unit string.

Q: Answer briefly: IC50 recorded on HepG2 for CCO/C=N/C1=C(C#N)C(c2ccc(Br)cc2)c2ccc3ccc(C)nc3c2O1 (stereo not given)
Result: 37.1

Q: Report IC50 from HepG2 testing of N#CC1=C(/N=C/c2ccccc2)Oc2c(ccc3cccnc23)C1c1ccc(Cl)cc1 (stereo not given)
Result: 2.8

Q: Give IC50 for Cc1ccc2ccc3c(c2n1)OC(/N=C/N)=C(C#N)C3c1ccc(Cl)cc1 (stereo not given) tested on HepG2.
Result: 32.9

Q: Under HepG2, report IC50 for CCO/C=N/C1=C(C#N)C(c2ccc(Cl)cc2)c2ccc3cccnc3c2O1 (stereo not given)
Result: 31.1

====

- Tested on: MCF7
- protocolSummary: Cytotoxicity against Homo sapiens (human) MCF7 cells assessed as cell viability at 3.125 ug/ml after 48 hr by MTT assay relative to control
- Type: functional
- settings: MCF7, 48 h, read-out: Activity
For each of the compounds below, state its viability at 3.125 µg/mL.
Give a bare numeral; the unit % is implied.

Q: In one line, give reported viability at 3.125 µg/mL of the entry Cc1ccc2ccc3c(c2n1)OC(/N=C/N)=C(C#N)C3c1ccc(Br)cc1 (stereo not drawn) .
Result: 97.3

Q: State its viability at 3.125 µg/mL for this compound: N#CC1=C(N)Oc2c(ccc3cccnc23)C1c1ccc(Cl)cc1 (stereo not drawn)
Result: 91.6

Q: Please report viability at 3.125 µg/mL for the following compound: Cc1ccc2ccc3c(c2n1)Oc1ncnc(N)c1C3c1ccc(Cl)cc1 (stereo not drawn)
Result: 97.3

Q: For CCO/C=N/C1=C(C#N)C(c2ccc(Cl)cc2)c2ccc3cccnc3c2O1 (stereo not drawn) , write its viability at 3.125 µg/mL.
Result: 93

Q: Return value of viability at 3.125 µg/mL for input N#CC1=C(N)Oc2c(ccc3cccnc23)C1c1ccc(Br)cc1 (stereo not drawn) , no commentary.
Result: 83.9

Q: Quote viability at 3.125 µg/mL reported for CC(=O)NC1=C(C#N)C(c2ccc(Cl)cc2)c2ccc3ccc(C)nc3c2O1 (stereo not drawn) please.
Result: 86.5

Q: Let me know recorded viability at 3.125 µg/mL for N#CC1=C(/N=C/N)Oc2c(ccc3cccnc23)C1c1ccc(Cl)cc1 (stereo not drawn) , thanks.
Result: 79.7

Q: Quick one: give measured viability at 3.125 µg/mL for Cc1ccc2ccc3c(c2n1)OC(/N=C/N)=C(C#N)C3c1ccc(Cl)cc1 (stereo not drawn)
Result: 96.5

====

- System: HepG2
- protocolSummary: Cytotoxicity against Homo sapiens (human) HepG2 cells assessed as cell viability at 50 ug/ml after 48 hr by MTT assay relative to control
- Assay type: functional
- settings: HepG2, 48 h, read-out: Activity
readoutLabel: viability at 50 µg/mL (%)
Lab book: enter the figure in %, no units written.

Q: Identify measured viability at 50 µg/mL associated with CCO/C=N/C1=C(C#N)C(c2ccc(Br)cc2)c2ccc3ccc(C)nc3c2O1 (stereo not drawn)
Result: 34.6

Q: Give a short answer stating reported viability at 50 µg/mL for Nc1ncnc2c1C(c1ccc(Cl)cc1)c1ccc3cccnc3c1O2 (stereo not drawn) .
Result: 64.3

Q: Specify reported viability at 50 µg/mL for the compound shown: Cc1ccc2ccc3c(c2n1)OC(N)=C(C#N)C3c1ccc(Br)cc1 (stereo not drawn)
Result: 22

Q: Answer with reported viability at 50 µg/mL of CCO/C=N/C1=C(C#N)C(c2ccc(Cl)cc2)c2ccc3ccc(C)nc3c2O1 (stereo not drawn)
Result: 45.2

Q: Note down viability at 50 µg/mL recorded for Cc1ccc2ccc3c(c2n1)OC(N)=C(C#N)C3c1ccc(Cl)cc1 (stereo not drawn)
Result: 23.1

Q: Check the records and state viability at 50 µg/mL for CC[C@]1(O)C[C@@H]2CN(CCc3c([nH]c4ccccc34)[C@@](C(=O)OC)(c3cc4c(cc3OC)N(C)[C@H]3[C@@](O)(C(=O)OC)[C@H](OC(C)=O)[C@]5(CC)C=CCN6CC[C@]43[C@@H]65)C2)C1
Result: 14.4

Q: Give the measured viability at 50 µg/mL for CN(C)/C=N/C1=C(C#N)C(c2ccc(Cl)cc2)c2ccc3cccnc3c2O1 (stereo not drawn)
Result: 48.1

Q: Input Cc1ccc2ccc3c(c2n1)OC(/N=C/N)=C(C#N)C3c1ccc(Br)cc1 (stereo not drawn) , output reported viability at 50 µg/mL.
Result: 52.3
